# System: normal primary NK cells, pool 3 (3 donors) (IL-2 2.5 ng/mL);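 also: normalised to DMSO-only wells as negative and benzethonium chloride as positive control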
# ASSAY_NAME: percent inhibition of viability; higher = more inhibition
# TEST_PARAMETERS: 72 h; 100 nM
Below, each entry is listed with its recorded percent inhibition of viability.
ATTRIBUTE_MEASURED: percent inhibition of viability (%)

>>> measurement("Cc1cn(-c2cc(NC(=O)c3ccc(C)c(Nc4nccc(-c5cccnc5)n4)c3)cc(C(F)(F)F)c2)cn1 [Nilotinib] (max concentration tested 10000 nM)")
-1.78
>>> measurement("O=C(c1cc(Cc2n[nH]c(=O)c3ccccc23)ccc1F)N1CCN(C(=O)C2CC2)CC1 [Olaparib] (max concentration tested 10000 nM)")
-4.22
>>> measurement("COc1cc2nccc(Oc3ccc(NC(=O)C4(C(=O)Nc5ccc(F)cc5)CC4)cc3)c2cc1OC [Cabozantinib] (max concentration tested 1000 nM)")
-12.7
>>> measurement("O=C(CCBr)N1CCN(C(=O)CCBr)CC1 [Pipobroman] (max concentration tested 10000 nM)")
2.05

Taken from the supplement of paper PMC5908809.
